Origin of measurements: ChEMBL document CHEMBL4014298

molecular target: Phosphatidylinositol 4,5-bisphosphate 3-kinase catalytic subunit delta isoform (Homo sapiens, UniProt O00329); assay: Inhibition of recombinant human PI3Kdelta using PIP2 as substrate preincubated for 20 mins followed by substrate addition measured after 80 mins in presence of ATP by Kinase Glo luminescence assay
Sequence (O00329 whole entry, canonical isoform): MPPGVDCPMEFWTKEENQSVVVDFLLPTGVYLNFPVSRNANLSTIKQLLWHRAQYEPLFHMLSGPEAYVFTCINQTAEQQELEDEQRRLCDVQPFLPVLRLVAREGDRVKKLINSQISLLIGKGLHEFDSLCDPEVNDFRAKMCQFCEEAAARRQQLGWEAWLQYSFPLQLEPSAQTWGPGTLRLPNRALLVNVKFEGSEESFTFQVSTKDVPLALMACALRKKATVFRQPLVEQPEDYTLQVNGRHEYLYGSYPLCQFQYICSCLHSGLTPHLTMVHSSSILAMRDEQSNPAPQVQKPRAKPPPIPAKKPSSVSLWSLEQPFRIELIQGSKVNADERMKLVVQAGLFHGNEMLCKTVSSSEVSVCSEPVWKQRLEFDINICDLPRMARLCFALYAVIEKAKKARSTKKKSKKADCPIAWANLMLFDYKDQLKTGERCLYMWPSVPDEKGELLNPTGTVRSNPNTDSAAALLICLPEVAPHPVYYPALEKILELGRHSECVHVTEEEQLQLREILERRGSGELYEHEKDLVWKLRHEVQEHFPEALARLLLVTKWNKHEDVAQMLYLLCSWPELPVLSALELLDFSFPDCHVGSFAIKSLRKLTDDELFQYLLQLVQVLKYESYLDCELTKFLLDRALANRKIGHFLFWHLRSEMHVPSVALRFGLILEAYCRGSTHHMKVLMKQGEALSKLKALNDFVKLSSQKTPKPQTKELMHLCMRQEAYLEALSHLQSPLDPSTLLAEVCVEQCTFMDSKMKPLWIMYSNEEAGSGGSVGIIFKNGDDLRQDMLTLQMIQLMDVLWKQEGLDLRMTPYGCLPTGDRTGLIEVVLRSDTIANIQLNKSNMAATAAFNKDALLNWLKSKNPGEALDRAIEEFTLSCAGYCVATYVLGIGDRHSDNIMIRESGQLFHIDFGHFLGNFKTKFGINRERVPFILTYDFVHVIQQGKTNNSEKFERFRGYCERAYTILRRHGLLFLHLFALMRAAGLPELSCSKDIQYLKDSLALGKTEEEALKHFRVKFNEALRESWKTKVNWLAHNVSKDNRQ
pIC50: −log10 of the molar value.
PROPERTY NAME: pIC50

{"SMILES NOTATION": "CN(C)C(=O)c1cc([C@H]2CCCN2c2ccc(F)cc2)c2oc(N3CCOCC3)cc(=O)c2c1", "pIC50": 8.09}

P = O=C(c1cc([C@H]2CCCN2c2cc(F)cc(F)c2)c2oc(N3CCOCC3)cc(=O)c2c1)N1CCOCC1
Q = O=C(c1cc([C@H]2CCCN2c2cccc(F)c2)c2oc(N3CCOCC3)cc(=O)c2c1)N1CCOCC1
Could you check which of P and Q has a smaller value for pIC50? Write down the label of the entry you select. P
(P: 8.07, Q: 8.29)

###

target: Diacylglycerol kinase zeta (Homo sapiens, UniProt Q13574)
Sequence (Q13574 whole entry): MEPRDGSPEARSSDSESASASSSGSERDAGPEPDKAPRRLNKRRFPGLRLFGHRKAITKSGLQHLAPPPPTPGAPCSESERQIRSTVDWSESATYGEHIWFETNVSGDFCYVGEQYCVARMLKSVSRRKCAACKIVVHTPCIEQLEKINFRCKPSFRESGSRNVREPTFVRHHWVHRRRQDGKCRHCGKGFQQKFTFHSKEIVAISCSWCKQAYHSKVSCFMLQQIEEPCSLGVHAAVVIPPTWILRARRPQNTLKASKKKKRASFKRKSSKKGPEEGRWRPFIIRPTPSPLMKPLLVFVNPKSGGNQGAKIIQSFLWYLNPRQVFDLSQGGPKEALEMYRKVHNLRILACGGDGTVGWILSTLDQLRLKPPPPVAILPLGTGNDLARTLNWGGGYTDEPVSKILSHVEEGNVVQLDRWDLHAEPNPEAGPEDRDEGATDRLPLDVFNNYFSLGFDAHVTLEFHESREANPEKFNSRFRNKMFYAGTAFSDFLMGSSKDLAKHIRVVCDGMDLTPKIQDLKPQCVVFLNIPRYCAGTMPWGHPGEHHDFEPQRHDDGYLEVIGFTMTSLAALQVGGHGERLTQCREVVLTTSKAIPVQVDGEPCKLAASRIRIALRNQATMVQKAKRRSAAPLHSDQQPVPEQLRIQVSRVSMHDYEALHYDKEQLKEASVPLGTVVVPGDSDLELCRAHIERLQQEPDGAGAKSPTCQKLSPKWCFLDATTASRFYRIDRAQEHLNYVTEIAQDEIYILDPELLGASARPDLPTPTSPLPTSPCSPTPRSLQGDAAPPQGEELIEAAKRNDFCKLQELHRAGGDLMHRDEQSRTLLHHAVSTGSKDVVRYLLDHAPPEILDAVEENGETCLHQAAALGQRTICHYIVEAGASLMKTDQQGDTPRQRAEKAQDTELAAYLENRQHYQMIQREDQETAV
pIC50: −log10 of the molar value.
PROPERTY NAME: pIC50

Query the reported pIC50 for Diacylglycerol kinase zeta (Homo sapiens, UniProt Q13574); item: "O=C(c1cc([C@H]2CCCN2c2cc(F)cc(F)c2)c2oc(N3CCOCC3)cc(=O)c2c1)N1CCOCC1" < 4.30

###

target: Phosphatidylinositol 4,5-bisphosphate 3-kinase catalytic subunit beta isoform (Homo sapiens, UniProt P42338); experiment: Inhibition of PI3Kbeta in PTEN-deficient human MDA-MB-468 cells assessed as decrease in AKT phosphorylation at Ser473 measured after 2 hrs
Sequence (P42338 whole entry, canonical isoform): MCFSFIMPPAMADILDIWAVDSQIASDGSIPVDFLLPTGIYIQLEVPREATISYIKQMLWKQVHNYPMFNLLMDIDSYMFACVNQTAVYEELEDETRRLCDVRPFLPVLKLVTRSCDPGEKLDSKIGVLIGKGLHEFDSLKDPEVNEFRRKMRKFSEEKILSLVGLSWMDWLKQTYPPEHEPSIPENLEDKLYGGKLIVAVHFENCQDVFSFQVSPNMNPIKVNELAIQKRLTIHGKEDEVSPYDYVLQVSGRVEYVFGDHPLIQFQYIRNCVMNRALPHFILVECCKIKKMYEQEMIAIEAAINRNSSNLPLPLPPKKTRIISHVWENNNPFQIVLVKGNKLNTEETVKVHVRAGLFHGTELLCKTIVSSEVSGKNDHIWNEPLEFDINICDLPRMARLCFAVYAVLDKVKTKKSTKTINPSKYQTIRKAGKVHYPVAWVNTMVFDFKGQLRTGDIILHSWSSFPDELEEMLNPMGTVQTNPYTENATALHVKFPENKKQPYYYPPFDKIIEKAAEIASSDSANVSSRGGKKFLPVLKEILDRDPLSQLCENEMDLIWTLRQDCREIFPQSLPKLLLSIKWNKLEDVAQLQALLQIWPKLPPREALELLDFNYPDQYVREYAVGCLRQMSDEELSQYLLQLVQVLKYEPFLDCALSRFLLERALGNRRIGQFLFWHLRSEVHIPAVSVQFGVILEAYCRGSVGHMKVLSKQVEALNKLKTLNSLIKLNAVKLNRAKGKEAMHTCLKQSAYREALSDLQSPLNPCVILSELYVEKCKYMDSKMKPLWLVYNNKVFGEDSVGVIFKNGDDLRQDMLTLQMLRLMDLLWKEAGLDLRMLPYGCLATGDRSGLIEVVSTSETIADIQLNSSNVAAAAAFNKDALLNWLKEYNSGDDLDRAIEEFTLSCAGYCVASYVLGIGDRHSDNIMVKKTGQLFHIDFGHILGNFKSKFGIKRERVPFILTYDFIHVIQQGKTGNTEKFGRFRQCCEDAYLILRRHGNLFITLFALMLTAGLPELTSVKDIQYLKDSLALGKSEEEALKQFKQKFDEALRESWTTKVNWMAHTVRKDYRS
PROPERTY NAME: IC50 (nM)

Solved entries (count: 5):
{"COMPOUND": "O=C(c1cc([C@H]2CCCN2c2cc(F)cc(F)c2)c2oc(N3CCOCC3)cc(=O)c2c1)N1CCOCC1", "IC50 [nM]": 1.1}
{"COMPOUND": "O=C(c1cc([C@H]2CCCN2c2cccc(F)c2)c2oc(N3CCOCC3)cc(=O)c2c1)N1CCOCC1", "IC50 [nM]": 2.8}
{"COMPOUND": "O=C(c1cc(C2CCCN2c2cc(F)cc(F)c2)c2oc(N3CCOCC3)cc(=O)c2c1)N1CCC(O)CC1 (racemic)", "IC50 [nM]": 3}
{"COMPOUND": "CN(C)C(=O)c1cc([C@H]2CCCN2c2cccc(F)c2)c2oc(N3CCOCC3)cc(=O)c2c1", "IC50 [nM]": 1.2}
{"COMPOUND": "CN(C)C(=O)c1cc([C@H]2CCCN2c2ccc(F)cc2)c2oc(N3CCOCC3)cc(=O)c2c1", "IC50 [nM]": 3.4}

P = CN1CCN(C(=O)c2cc([C@H]3CCCN3c3cc(F)cc(F)c3)c3oc(N4CCOCC4)cc(=O)c3c2)CC1
Q = CN(C)C(=O)c1cc(C2CCCN2c2cc(F)cc(F)c2)c2oc(N3CCOCC3)cc(=O)c2c1 (racemic)
R = O=C(c1cc(C2CCCN2c2ccc(F)cc2)c2oc(N3CCOCC3)cc(=O)c2c1)N1CCOCC1 (single isomer, unassigned)
Reorder the items by IC50, least to greatest. // respond by listing labels in the order requested Q, P, R

###

test: Lipophilicity, log D of the compound at pH 7.4; conditions: buffer
PROPERTY NAME: logD

Solved entries (count: 7):
{"COMPOUND": "O=C(c1cc(C2CCCN2c2ccc(F)cc2)c2oc(N3CCOCC3)cc(=O)c2c1)N1CCOCC1 (single isomer, unassigned)", "PROPERTY NAME": "logD", "NUMERIC READOUT": 2.2}
{"COMPOUND": "O=C(c1cc(C2CCCN2c2cc(F)cc(F)c2)c2oc(N3CCOCC3)cc(=O)c2c1)N1CCC(O)CC1 (racemic)", "PROPERTY NAME": "logD", "NUMERIC READOUT": 2.3}
{"COMPOUND": "CN(CCO)C(=O)c1cc(C2CCCN2c2cc(F)cc(F)c2)c2oc(N3CCOCC3)cc(=O)c2c1 (racemic)", "PROPERTY NAME": "logD", "NUMERIC READOUT": 2}
{"COMPOUND": "CN(C)C(=O)c1cc([C@H]2CCCN2c2cccc(F)c2)c2oc(N3CCOCC3)cc(=O)c2c1", "PROPERTY NAME": "logD", "NUMERIC READOUT": 2.5}
{"COMPOUND": "CN(C)C(=O)c1cc(C2CCCN2c2cc(F)cc(F)c2)c2oc(N3CCOCC3)cc(=O)c2c1 (racemic)", "PROPERTY NAME": "logD", "NUMERIC READOUT": 2.7}
{"COMPOUND": "O=C(c1cc([C@H]2CCCN2c2cc(F)cc(F)c2)c2oc(N3CCOCC3)cc(=O)c2c1)N1CCOCC1", "PROPERTY NAME": "logD", "NUMERIC READOUT": 2.5}
{"COMPOUND": "O=C(c1cc([C@H]2CCCN2c2cccc(F)c2)c2oc(N3CCOCC3)cc(=O)c2c1)N1CCOCC1", "PROPERTY NAME": "logD", "NUMERIC READOUT": 2.2}

P = CN1CCN(C(=O)c2cc([C@H]3CCCN3c3cc(F)cc(F)c3)c3oc(N4CCOCC4)cc(=O)c3c2)CC1
Q = Cc1cc([C@@H](C)Nc2ccccc2)c2nc(N3CCOCC3)cc(=O)n2c1
Higher logD: P or Q ? Write down the label of the entry you select. Q

###

test: Intrinsic clearance in dog hepatocytes assessed per million cells; assay type: ADME, cell-based, Canis lupus familiaris, Hepatocyte; details: read-out: CLH
PROPERTY NAME: hepatocyte CLint (µL/min/1e6 cells)
Give the quantity in µL/min/1e6 cells, number only.

Please give the measured hepatocyte CLint for this compound: "O=C(c1cc([C@H]2CCCN2c2cc(F)cc(F)c2)c2oc(N3CCOCC3)cc(=O)c2c1)N1CCOCC1" 23

###

test: Intrinsic clearance in human hepatocytes assessed per million cells; format: ADME, cell-based, Hepatocyte; details: read-out: CLH
PROPERTY NAME: hepatocyte CLint (µL/min/1e6 cells)

Solved entries (count: 5):
{"COMPOUND": "CN1CCN(C(=O)c2cc([C@H]3CCCN3c3cc(F)cc(F)c3)c3oc(N4CCOCC4)cc(=O)c3c2)CC1", "hepatocyte CLint (µL/min/1e6 cells)": 11}
{"COMPOUND": "CN(C)C(=O)c1cc(C2CCCN2c2ccccc2)c2oc(N3CCOCC3)cc(=O)c2c1 (racemic)", "hepatocyte CLint (µL/min/1e6 cells)": 11}
{"COMPOUND": "O=C(c1cc([C@H]2CCCN2c2cccc(F)c2)c2oc(N3CCOCC3)cc(=O)c2c1)N1CCOCC1", "hepatocyte CLint (µL/min/1e6 cells)": 6}
{"COMPOUND": "O=C(c1cc(C2CCCN2c2ccc(F)cc2)c2oc(N3CCOCC3)cc(=O)c2c1)N1CCOCC1 (single isomer, unassigned)", "hepatocyte CLint (µL/min/1e6 cells)": 8}
{"COMPOUND": "CN(C)C(=O)c1cc([C@H]2CCCN2c2ccc(F)cc2)c2oc(N3CCOCC3)cc(=O)c2c1", "hepatocyte CLint (µL/min/1e6 cells)": 14}

1 = CN(C)C(=O)c1cc(C2CCCN2c2cc(F)cc(F)c2)c2oc(N3CCOCC3)cc(=O)c2c1 (racemic)
2 = CN(CCO)C(=O)c1cc(C2CCCN2c2cc(F)cc(F)c2)c2oc(N3CCOCC3)cc(=O)c2c1 (racemic)
Could you check which of 1 and 2 has a smaller value for hepatocyte CLint? Write down the label of the entry you select. 2

###

molecular target: Phosphatidylinositol 4,5-bisphosphate 3-kinase catalytic subunit delta isoform (Homo sapiens); test: Inhibition of PI3Kdelta in human JeKo1 B cells assessed as decrease in AKT phosphorylation at Ser473 measured after 1 hr; format: cell-based
PROPERTY NAME: pIC50
pIC50 here is simply -log10 of the concentration when that concentration is written in mol/L.

Please give the measured pIC50 for this compound: "O=C(c1cc([C@H]2CCCN2c2cc(F)cc(F)c2)c2oc(N3CCOCC3)cc(=O)c2c1)N1CCOCC1" 7.85

###

assay: Inhibition of PI3Kalpha mutant in human BT474 cells assessed as decrease in AKT phosphorylation at Thr308 after 2 hrs; type: cell-based; settings: BT-474, 2 h
PROPERTY NAME: IC50 (nM)

{"MOLECULE": "O=C(c1cc([C@H]2CCCN2c2cc(F)cc(F)c2)c2oc(N3CCOCC3)cc(=O)c2c1)N1CCOCC1", "UNIT": "nM", "IC50": 140}
{"MOLECULE": "O=C(c1cc(C2CCCN2c2ccc(F)cc2)c2oc(N3CCOCC3)cc(=O)c2c1)N1CCOCC1 (single isomer, unassigned)", "UNIT": "nM", "IC50": 1200}

a = CN(C)C(=O)c1cc(C2CCCN2c2ccccc2)c2oc(N3CCOCC3)cc(=O)c2c1 (racemic)
b = CN(C)C(=O)c1cc([C@H]2CCCN2c2ccc(F)cc2)c2oc(N3CCOCC3)cc(=O)c2c1
Could you check which of a and b has a smaller value for IC50? Write down the label of the entry you select. b
(b: 180 nM, a: 480 nM)

A = O=C(c1cc(C2CCCN2c2cc(F)cc(F)c2)c2oc(N3CCOCC3)cc(=O)c2c1)N1CCC(O)CC1 (racemic)
B = CN(C)C(=O)c1cc(C2CCCN2c2cc(F)cc(F)c2)c2oc(N3CCOCC3)cc(=O)c2c1 (racemic)
C = CN1CCN(C(=O)c2cc([C@H]3CCCN3c3cc(F)cc(F)c3)c3oc(N4CCOCC4)cc(=O)c3c2)CC1
D = CN(C)C(=O)c1cc([C@H]2CCCN2c2cccc(F)c2)c2oc(N3CCOCC3)cc(=O)c2c1
Reorder the items by IC50, least to greatest. // respond by listing labels in the order requested D, B, C, A

I = CN(CCO)C(=O)c1cc(C2CCCN2c2cc(F)cc(F)c2)c2oc(N3CCOCC3)cc(=O)c2c1 (racemic)
II = O=C(c1cc([C@H]2CCCN2c2cccc(F)c2)c2oc(N3CCOCC3)cc(=O)c2c1)N1CCOCC1
Could you check which of I and II has a smaller value for IC50? Write down the label of the entry you select. II
(II: 300 nM, I: 870 nM)
